TEST SUMMARY: yeast display, Sf9 membrane polyspecificity reagent, FACS + sequencing; frameworks hold sequencing errors
MEASURED METRIC: polyreactivity (PSR sort gate)

>>> data_value("QVQLVESGGGLVQAGGSLRLSCAASGGIFVQNAMGWYRQAPGKERELVAAITNGGSTYYADSVKGRFTISRDNAKNTVYLQMNSLKPEDTAVYYCAVDEYFIQDMDYWGQGTQVTVSS")
"low polyreactivity"
>>> data_value("QVQVVESGGGLVQAGGSLRLSCAASGFISSYYAMGWYRQAPGKERELVAAITSGGRTYYADSVKGRFTISRDNAKNTVYLQMNSLKPEDTAVYYCAKYSRTKAFDYWGQGTQVTVSS")
"high polyreactivity"
>>> data_value("QVQLVESCGGLVQAGGSLLLSCAASGGTFCDYAMVWYRQAPGKEREFVASITRSVSDTYYADSVKGRFTISRDNAKNTVYLQINSLKPEDTAVYYCKADRWYPWRSIMDYWGQGTQVSVSS")
"low polyreactivity"
>>> data_value("QVQLVESGGGLVQAGGILSLSSAAYGRISVFYTMGWYIQAPGKERELVAVIRTAGGRTKYADSVKGRFTISRDNAKNTVYLQMNSLKPEDTAVYYCADRVVRYGYKYYYWGQGTQVTVSS")
"low polyreactivity"
>>> data_value("QVQLVESGGGLVQAGGSLRLSCAASGSIFDQYAMGWYRQAPGKERELVAGISSNGGTSTYYADSVKGRFTISRDNAKNTVYLQMNSLKAEDTAVYYCAAQSHYVDQYGYWGQGTQVTVSS")
"low polyreactivity"
>>> data_value("QVQLVESGGGLFQAGVSLRLSCAASGRTLQIYHMGWYRQAPGKERELVAAISSSGGSTYYADSVKGRFTISRDNAKNTVYVQMNSLKAEDTAVYYCAADPRGYGYTRKGYYWGQGTQVTVSS")
"high polyreactivity"
>>> data_value("QVQLVESGGGLVQAGGSLRLSCAASGLIIVYNAIGWYRHAPGKERELVAGITSGGSTNYADSEKGRFTISRDNAKKTVYLQMNSLKPEDTAVYYCNAPVTGAGTYPPYDSWGQGTQVTVSS")
"high polyreactivity"
>>> data_value("QVQLVETGGGLVQAGGSLRLSCAPSGSIFEYNGMGWYRQAPGKERELVAAITTTGTTDYADSVKGRFTISRDNAKNTVYLQMNSLKPEDTAVYYCAADYTYYYKGEYDYWGQGTQVTVSS")
"low polyreactivity"
>>> data_value("QVQLVESGGGLVQAGGSLRLSCAASGSNFWSNAMRWYRQAPGKERELVATIDDDVGSTYYADSVKGRFTISRDNAKNTVYFQMNSLKPEDTAVYYCAADTSGADAYTKVRDGYDYWGQGTQVSVSS")
"low polyreactivity"
>>> data_value("QVQLVESGGGLVQAGGSLRLICAASGRIFWGNAMGWYRQAPGKERELVAAINSIGGTTYYADSVKGRFTISRDNAKNTVYLQMNSLKPEDTAVYYCAAQTFVYRKELLSRYEYWGQGTQVTVSS")
"high polyreactivity"
>>> data_value("QVQLVESGGGLVQAGGSLRLSCAASGRIFTYYAMGWYRQAPGKERELVAAITSRGGRTYYADSVKGRFTISRDNAKNTVYLQMNSLKPEDTAVYYCNVDRWRRTISHDIYGYWGQGTQVTVSS")
"high polyreactivity"
